Recorded Ki, one value per entry.
# test-system: UniProtKB P00760
# assay-text: In vitro inhibition of bovine trypsin(Trp).
Give your result in µM as a bare value.

In the examples that follow, each entry is paired with its recorded Ki.
INSERT INTO measurements (structure_as_smiles, quantitative_readout) VALUES
  ('N=C(N)c1ccc(/C=C2/CCCCCC/C(=C/c3ccc(C(=N)N)cc3)C2=O)cc1', 0.19),
  ('N=C(N)c1ccc(/C=C2/CC/C(=C\c3ccc(C(=N)N)cc3)C2=O)cc1', 0.73),
  ('N=C(N)c1ccc(/C=C2/CCC/C(=C/c3ccc(C(=N)N)cc3)C2=O)cc1', 0.44),
  ('N=C(N)c1ccc(/C=C2\CC/C(=C\c3ccc(C(=N)N)cc3)C2=O)cc1', 0.59);

Here is another compound to look at.
Q: What does the record list as Ki for N=C(N)c1ccc(/C=C2/CCCC/C(=C/c3ccc(C(N)=O)cc3)C2=O)cc1 ?
Ans: 0.69

----------
# test-system: Serine protease 1 (Bos taurus, UniProt P00760)
# Sequence (P00760 whole entry): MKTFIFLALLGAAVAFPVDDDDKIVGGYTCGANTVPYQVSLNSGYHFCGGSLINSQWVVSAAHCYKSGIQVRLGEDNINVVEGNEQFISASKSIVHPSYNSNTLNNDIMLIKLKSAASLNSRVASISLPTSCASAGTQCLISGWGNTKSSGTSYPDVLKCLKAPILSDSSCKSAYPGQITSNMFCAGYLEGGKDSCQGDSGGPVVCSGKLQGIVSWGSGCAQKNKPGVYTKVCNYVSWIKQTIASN
# assay-text: In vitro inhibition of bovine trypsin(Trp).
pKi: −log10 of the molar value.
Give yes (1) when the value for pKi is at least 7. Give no (0) when it is less.

INSERT INTO assay_data (molecule, cat) VALUES
  ('N=C(N)c1ccc(/C=C2\CCCC/C(=C/c3ccc(C(N)=O)cc3)C2=O)cc1', 'no (0)'),
  ('N=C(N)c1ccc(/C=C2/CCCCCCC/C(=C/c3ccc(C(=N)N)cc3)C2=O)cc1', 'no (0)'),
  ('CN(C)C(=N)c1ccc(/C=C2/CCCC/C(=C\c3ccc(C(=N)N)cc3)C2=O)cc1', 'yes (1)');

Q: Check the entry N=C(N)c1ccc(/C=C2\CC(c3ccccc3)C/C(=C\c3ccc(C(=N)N)cc3)C2=O)cc1 (centres undefined) : does pKi equal or exceed 7?
Ans: yes (1)

Q: Check the entry N=C(N)c1ccc(/C=C2\CCCCC/C(=C\c3ccc(C(=N)N)cc3)C2=O)cc1 : does pKi equal or exceed 7?
Ans: no (0)

----------
# Coagulation factor X (Homo sapiens, UniProt P00742): pKi values follow
# Sequence (P00742 41-179 limits assumed): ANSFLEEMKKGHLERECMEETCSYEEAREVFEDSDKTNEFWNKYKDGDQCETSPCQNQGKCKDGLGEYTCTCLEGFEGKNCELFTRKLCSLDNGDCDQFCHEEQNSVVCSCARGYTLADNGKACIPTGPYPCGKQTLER
# Sequence (P00742 235-488 limits assumed): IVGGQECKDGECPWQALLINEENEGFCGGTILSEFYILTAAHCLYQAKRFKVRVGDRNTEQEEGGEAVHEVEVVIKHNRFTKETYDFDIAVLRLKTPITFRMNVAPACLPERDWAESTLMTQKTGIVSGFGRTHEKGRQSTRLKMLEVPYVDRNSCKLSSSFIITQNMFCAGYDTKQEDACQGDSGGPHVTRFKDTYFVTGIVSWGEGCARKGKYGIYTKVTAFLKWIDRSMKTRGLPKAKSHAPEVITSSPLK
The meaning of pKi here: minus log10 of the concentration in molar units.

In the examples that follow, each entry is paired with its recorded pKi.
INSERT INTO results (molecule, quantitative_readout) VALUES
  ('N=C(N)c1ccc(/C=C2/CC(C(=O)O)C/C(=C/c3ccc(C(=N)N)cc3)C2=O)cc1 (stereo not given)', 8.16),
  ('N=C(N)c1ccc(/C=C2/CCCCCC/C(=C/c3ccc(C(=N)N)cc3)C2=O)cc1', 8.55),
  ('N=C(N)c1ccc(/C=C2/CC(c3ccccc3)C/C(=C\c3ccc(C(=N)N)cc3)C2=O)cc1 (stereo not given)', 6.40),
  ('N=C(N)c1ccc(/C=C2/CCCCC/C(=C/c3ccc(C(=N)N)cc3)C2=O)cc1', 8.34),
  ('N=C(N)c1ccc(/C=C2\CCCCC/C(=C\c3ccc(C(=N)N)cc3)C2=O)cc1', 5.74),
  ('C/N=C(\N)c1ccc(/C=C2/CCCC/C(=C/c3ccc(C(=N)N)cc3)C2=O)cc1', 7.92);

Q: Can you look up pKi on Coagulation factor X (Homo sapiens, UniProt P00742) for CN(C)C(=N)c1ccc(/C=C2/CCCC/C(=C\c3ccc(C(=N)N)cc3)C2=O)cc1 ?
Ans: 7.28

Q: Can you look up pKi on Coagulation factor X (Homo sapiens, UniProt P00742) for N=C(N)c1ccc(/C=C2/CCCCCC/C(=C\c3ccc(C(=N)N)cc3)C2=O)cc1 ?
Ans: 6.49

Q: Can you look up pKi on Coagulation factor X (Homo sapiens, UniProt P00742) for N=C(N)c1ccc(/C=C2\CC(C(=O)O)C/C(=C\c3ccc(C(=N)N)cc3)C2=O)cc1 (stereo not given) ?
Ans: 4.61

----------
# test-system: Serine protease 1 (Bos taurus)
# assay-text: In vitro inhibition of bovine trypsin(Trp).
assay-endpoint: pKi
The meaning of pKi here: minus log10 of the concentration in molar units.

In the examples that follow, each entry is paired with its recorded pKi.
INSERT INTO assay_data (compound, quantitative_readout) VALUES
  ('N=C(N)c1ccc(/C=C2/CCCCC/C(=C/c3ccc(C(=N)N)cc3)C2=O)cc1', 7.00),
  ('COC(=O)C1C/C(=C/c2ccc(C(=N)N)cc2)C(=O)/C(=C/c2ccc(C(=N)N)cc2)C1 (stereo not drawn)', 6.65),
  ('CN(C)C(=N)c1ccc(/C=C2/CCCC/C(=C/c3ccc(C(=N)N)cc3)C2=O)cc1', 7.05),
  ('N=C(N)c1ccc(/C=C2/CC(C(=O)O)C/C(=C/c3ccc(C(=N)N)cc3)C2=O)cc1 (stereo not drawn)', 6.37),
  ('N=C(N)c1ccc(/C=C2\CCCCCC/C(=C\c3ccc(C(=N)N)cc3)C2=O)cc1', 5.82);

Q: What does the record list as pKi for N=C(N)c1ccc(/C=C2\CC(C(=O)O)C/C(=C\c3ccc(C(=N)N)cc3)C2=O)cc1 (stereo not drawn) ?
Ans: 6.06

Q: What does the record list as pKi for N=C(N)c1ccc(/C=C2/CCCCC/C(=C\c3ccc(C(=N)N)cc3)C2=O)cc1 ?
Ans: 7.52

Q: What does the record list as pKi for CN(C)C(=N)c1ccc(/C=C2\CCCC/C(=C\c3ccc(C(=N)N)cc3)C2=O)cc1 ?
Ans: 6.30

Q: What does the record list as pKi for CCOC(=O)N1C/C(=C/c2ccc(C(=N)N)cc2)C(=O)/C(=C/c2ccc(C(=N)N)cc2)C1 ?
Ans: 7.21

Q: What does the record list as pKi for C/N=C(\N)c1ccc(/C=C2/CCCC/C(=C/c3ccc(C(=N)N)cc3)C2=O)cc1 ?
Ans: 7.52

Q: What does the record list as pKi for C/N=C(/N)c1ccc(/C=C2/CCCC/C(=C\c3ccc(C(=N)N)cc3)C2=O)cc1 ?
Ans: 6.81

----------
Recorded log10 Ki, one value per entry.
# test-system: Prothrombin (Homo sapiens, UniProt P00734)
Units before log transform: nM; reported quantity: Ki; transform: log10.

In the examples that follow, each entry is paired with its recorded log10 Ki.
INSERT INTO results (compound, assay_endpoint, quantitative_readout) VALUES
  ('CCOC(=O)N1C/C(=C/c2ccc(C(=N)N)cc2)C(=O)/C(=C/c2ccc(C(=N)N)cc2)C1', 'log10 Ki', 2.80),
  ('N=C(N)c1ccc(/C=C2/CCC/C(=C/c3ccc(C(=N)N)cc3)C2=O)cc1', 'log10 Ki', 2.91),
  ('CCOC(=O)N1C/C(=C/c2ccc(C(=N)N)cc2)C(=O)/C(=C\c2ccc(C(=N)N)cc2)C1', 'log10 Ki', 2.58),
  ('COC(=O)C1C/C(=C\c2ccc(C(=N)N)cc2)C(=O)/C(=C/c2ccc(C(=N)N)cc2)C1 (stereo unspecified)', 'log10 Ki', 3.64),
  ('CCOC(=O)N1C/C(=C\c2ccc(C(=N)N)cc2)C(=O)/C(=C/c2ccc(C(=N)N)cc2)C1', 'log10 Ki', 3.52),
  ('C/N=C(\N)c1ccc(/C=C2/CCCC/C(=C/c3ccc(C(=N)N)cc3)C2=O)cc1', 'log10 Ki', 3.20);

Q: Can you look up log10 Ki on Prothrombin (Homo sapiens, UniProt P00734) for N=C(N)c1ccc(/C=C2\CC/C(=C\c3ccc(C(=N)N)cc3)C2=O)cc1 ?
Ans: 3.34

Q: Can you look up log10 Ki on Prothrombin (Homo sapiens, UniProt P00734) for N=C(N)c1ccc(/C=C2/CCCCCC/C(=C/c3ccc(C(=N)N)cc3)C2=O)cc1 ?
Ans: 2.46

Q: Can you look up log10 Ki on Prothrombin (Homo sapiens, UniProt P00734) for N=C(N)c1ccc(/C=C2/CC/C(=C\c3ccc(C(=N)N)cc3)C2=O)cc1 ?
Ans: 4.28

Q: Can you look up log10 Ki on Prothrombin (Homo sapiens, UniProt P00734) for N=C(N)c1ccc(/C=C2/CCC/C(=C\c3ccc(C(=N)N)cc3)C2=O)cc1 ?
Ans: 2.08

Q: Can you look up log10 Ki on Prothrombin (Homo sapiens, UniProt P00734) for N=C(N)c1ccc(/C=C2/CCCCCCC/C(=C\c3ccc(C(=N)N)cc3)C2=O)cc1 ?
Ans: 2.18

Q: Can you look up log10 Ki on Prothrombin (Homo sapiens, UniProt P00734) for N=C(N)c1ccc(/C=C2/CC(c3ccccc3)C/C(=C\c3ccc(C(=N)N)cc3)C2=O)cc1 (stereo unspecified) ?
Ans: 2.51
